# Experimental System: Anoctamin-1 (Mus musculus) (UniProt Q8BHY3)
# Sequence (Q8BHY3 whole entry, looked up): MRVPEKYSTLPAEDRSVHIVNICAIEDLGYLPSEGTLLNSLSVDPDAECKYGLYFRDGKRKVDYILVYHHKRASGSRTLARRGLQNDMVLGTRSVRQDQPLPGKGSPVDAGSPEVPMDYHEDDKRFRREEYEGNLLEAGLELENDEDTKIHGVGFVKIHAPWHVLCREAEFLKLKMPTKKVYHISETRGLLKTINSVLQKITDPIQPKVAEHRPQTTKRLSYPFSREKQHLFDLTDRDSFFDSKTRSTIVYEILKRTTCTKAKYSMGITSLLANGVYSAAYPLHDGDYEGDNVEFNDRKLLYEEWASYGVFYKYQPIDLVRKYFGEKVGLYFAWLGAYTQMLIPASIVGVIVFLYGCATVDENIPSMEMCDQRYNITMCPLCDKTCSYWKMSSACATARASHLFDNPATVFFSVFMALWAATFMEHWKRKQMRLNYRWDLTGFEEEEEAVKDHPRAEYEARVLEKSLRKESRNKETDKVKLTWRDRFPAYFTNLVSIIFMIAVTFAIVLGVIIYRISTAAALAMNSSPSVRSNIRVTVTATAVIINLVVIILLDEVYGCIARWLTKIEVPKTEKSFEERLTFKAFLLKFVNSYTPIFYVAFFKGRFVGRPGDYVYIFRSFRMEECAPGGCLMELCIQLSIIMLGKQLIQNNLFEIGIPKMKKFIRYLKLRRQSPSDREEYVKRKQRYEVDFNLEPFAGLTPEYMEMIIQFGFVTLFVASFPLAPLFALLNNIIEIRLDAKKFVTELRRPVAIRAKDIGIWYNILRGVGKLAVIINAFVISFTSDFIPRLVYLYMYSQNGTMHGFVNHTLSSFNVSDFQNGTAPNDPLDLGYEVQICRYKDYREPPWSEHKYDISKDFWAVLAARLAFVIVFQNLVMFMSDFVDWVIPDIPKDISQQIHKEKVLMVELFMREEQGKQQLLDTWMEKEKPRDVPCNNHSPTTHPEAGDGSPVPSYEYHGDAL
# Assay Notes: mouse ANO1 channel activation – cell-based, HTS, primary screen (AID 623877)
# Measurement Context: HEK293 TMEM16A/YFP-H148Q/I152L, iodide quench fluorescence, at 10 µM
Screen size: about 340,000 compounds; about 1,000 (0.29%) were called active.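 Rule for the calls: active = fluorescence-ratio B-score plate-corrected deviation score at least 3 library SD below zero, with starting fluorescence score within 5 deviations; inactive = the rest.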 Only a selection was taken, and actives are over-represented in it overall.
Write down one outcome, taken from class 1 = active, class 0 = inactive

Would you please look over these solved cases?
CC(C)N(Cc1ccccc1)C(=O)COC(=O)c1cnccn1: class 0
Cc1ccccc1NC(=O)c1nn(-c2ccc(F)c(F)c2)ccc1=O: class 0

Request: Kindly provide the recorded test outcome for the following molecule: COC(=O)c1ccc(C(NC(=O)OCc2ccccc2)/C(F)=C/[C@@H](C)C(=O)O)cc1 (some centres undefined)
Response: class 0

Request: Kindly provide the recorded test outcome for the following molecule: CC(C)CCN1CCN(Cc2ccc(C(F)(F)F)cc2)CC1CCO (centres undefined)
Response: class 0

Request: Kindly provide the recorded test outcome for the following molecule: CCOc1ccc(N(CC(=O)NC2CCCCCC2)S(=O)(=O)c2c(C)[nH]c(=O)[nH]c2=O)cc1
Response: class 0

---

# Experimental System: Anoctamin-1 (Mus musculus) (UniProt Q8BHY3)
# Assay Notes: mouse ANO1 channel activation – cell-based, HTS, primary screen (AID 623877)
# Measurement Context: HEK293 TMEM16A/YFP-H148Q/I152L, iodide quench fluorescence, at 10 µM
In all, about 340,000 compounds went through this assay and about 1,000 (0.29%) were called active.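 The calls were made as follows: active = fluorescence-ratio B-score plate-corrected deviation score at least 3 library SD below zero, with starting fluorescence score within 5 deviations; inactive = the rest.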 This is one part of a sample in which actives are shown more often than they occur.
Write down one outcome, taken from class 1 for active, class 0 for inactive

Request: Kindly provide the recorded test outcome for the following molecule: CC(C)N(Cc1nnc(-c2ccc(Cl)cc2)o1)C(=O)C1=COCCO1
Response: class 0

---

# Experimental System: Anoctamin-1 (Mus musculus) (UniProt Q8BHY3)
# Assay Notes: mouse ANO1 channel activation – cell-based, HTS, primary screen (AID 623877)
# Measurement Context: HEK293 TMEM16A/YFP-H148Q/I152L, iodide quench fluorescence, at 10 µM
The whole screen tested about 340,000 compounds, of which about 1,000 (0.29%) were called active.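 Rule for the calls: active = fluorescence-ratio B-score plate-corrected deviation score at least 3 library SD below zero, with starting fluorescence score within 5 deviations; inactive = the rest.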 The list comes from a sample in which actives are over-represented; it also holds close analogues and randomly drawn compounds.
Write down one outcome, taken from active, inactive

O=C1c2ccccc2S(=O)(=O)c2cc(N3CCN(c4ccccn4)CC3)ccc21: active
COC(=O)Cc1c(-c2[nH]c3ccccc3c2CC(=O)OC)[nH]c2ccccc12: inactive
O=C(c1c(F)cccc1Cl)N1CCN(c2ccccn2)CC1: inactive
Cc1cc2c(cc1C)N(C(=O)CN1C(=O)c3ccccc3C1=O)C(C)(C)c1ssc(=S)c1-2: active
Cc1ccccc1OCCC(=O)OCC(=O)NCCc1ccc(S(N)(=O)=O)cc1: inactive

Request: Kindly provide the recorded test outcome for the following compound: CCOc1cc(C(=O)N(Cc2ccccc2)c2ccc(C)cc2)ccc1OCC(=O)N1CCOCC1
Response: inactive

Request: Kindly provide the recorded test outcome for the following compound: Oc1cc2c(cc1O)CN(C(=S)NCCc1ccc(Cl)cc1)CCC2
Response: inactive

Request: Kindly provide the recorded test outcome for the following compound: S=c1nc2ccccc2c2nc(-c3cccnc3)[nH]n12
Response: inactive

---

# Experimental System: Anoctamin-1 (Mus musculus) (UniProt Q8BHY3)
# Assay Notes: mouse ANO1 channel activation – cell-based, HTS, primary screen (AID 623877)
# Measurement Context: HEK293 TMEM16A/YFP-H148Q/I152L, iodide quench fluorescence, at 10 µM
About 1,000 (0.29%) of roughly 340,000 compounds were called active.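 The calls were made as follows: active = fluorescence-ratio B-score plate-corrected deviation score at least 3 library SD below zero, with starting fluorescence score within 5 deviations; inactive = the rest.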 The sample holds actives, similar compounds and a random draw of the others, so the mix is not that of the screen.
Write down one outcome, taken from active, inactive

COc1cccc(N2CCN(CC(=O)Nc3ccnn3C3CCCC3)CC2)c1: active

Request: Kindly provide the recorded test outcome for the following compound: CCOC(=O)c1c(/N=C/C2C(=O)CC(C)(C)CC2=O)sc(C)c1C
Response: inactive

Request: Kindly provide the recorded test outcome for the following compound: CCn1c(COc2ccccc2)nnc1SCC(=O)Nc1ccc2c(c1)OCCO2
Response: active

Request: Kindly provide the recorded test outcome for the following compound: Cc1nc(SCC(=O)NC2CCCC2)[nH]c(=O)c1C
Response: inactive

Request: Kindly provide the recorded test outcome for the following compound: COc1cccc(C(=O)N2CCC(n3nccc3NC(=O)C3CCOC3)CC2)c1 (stereo unspecified)
Response: inactive

Request: Kindly provide the recorded test outcome for the following compound: O=C(Oc1ccccc1)Oc1ccc2c(c1)oc(=O)c1ccccc12
Response: inactive

Request: Kindly provide the recorded test outcome for the following compound: CC(OC(=O)CCCc1c[nH]c2ccccc12)C(=O)Nc1ccc(S(N)(=O)=O)cc1 (stereo unspecified)
Response: inactive

Request: Kindly provide the recorded test outcome for the following compound: O=C(OCC(=O)N1CCN(C(=O)c2ccco2)CC1)c1cccc(O)c1
Response: inactive
